# MEASURED TARGET: UniProt:O15244
# ASSAY NAME: Uptake transporter inhibition assay, OCT2 (metformin)
# PROTOCOL CONDITIONS: human, Relative Inhibition, 0.12 μM nominal; metformin; IC50 determination, Table 124
READOUT KIND: inhibition at 0.12 μM (%)
# output: bare number, implied unit %

## Input So what does the record say about inhibition at 0.12 μM for OC1(c2ccc(Cl)cc2)c2ccccc2C2=NCCN21 (stereo not shown) [Compound A, reference compound] ?
## Output -6

###

# MEASURED TARGET: OATP1B1 (Homo sapiens, UniProt Q9Y6L6)
# Sequence (Q9Y6L6 whole entry): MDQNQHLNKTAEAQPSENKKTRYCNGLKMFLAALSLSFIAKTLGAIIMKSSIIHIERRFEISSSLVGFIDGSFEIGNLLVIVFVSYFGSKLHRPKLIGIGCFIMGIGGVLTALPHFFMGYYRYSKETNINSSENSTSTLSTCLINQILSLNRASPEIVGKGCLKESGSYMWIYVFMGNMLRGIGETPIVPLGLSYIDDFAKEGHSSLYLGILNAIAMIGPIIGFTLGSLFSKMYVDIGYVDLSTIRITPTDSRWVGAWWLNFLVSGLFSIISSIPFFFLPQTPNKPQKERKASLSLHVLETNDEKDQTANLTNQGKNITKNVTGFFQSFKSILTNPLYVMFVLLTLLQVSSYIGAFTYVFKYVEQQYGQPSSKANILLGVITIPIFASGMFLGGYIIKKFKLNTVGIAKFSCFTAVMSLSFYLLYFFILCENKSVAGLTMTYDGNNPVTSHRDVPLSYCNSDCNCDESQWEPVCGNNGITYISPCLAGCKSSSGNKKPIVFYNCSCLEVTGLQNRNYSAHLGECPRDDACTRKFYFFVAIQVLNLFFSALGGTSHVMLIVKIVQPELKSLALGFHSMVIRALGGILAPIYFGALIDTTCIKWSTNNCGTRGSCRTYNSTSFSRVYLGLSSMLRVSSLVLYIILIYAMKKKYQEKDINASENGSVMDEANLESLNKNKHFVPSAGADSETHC
# ASSAY NAME: Uptake transporter inhibition assay, OATP1B1 (estradiol-17-β-glucuronide)
# PROTOCOL CONDITIONS: human
# Procedure: Uptake experiments were performed using HEK293 cells stably expressing the respective uptake transporters. The assays were conducted according to the actual SOLVO uptake transporter assay protocols (PR-ASY-UPT-General Protocol for Uptake Transporter Inhibition Assays). […] After the experiment, cells were washed twice with 100 μL of appropriate cold buffer and lysed with 150 μL scintillation cocktail. Radiolabeled probe substrate transport was determined by liquid scintillation counting. […]
READOUT KIND: inhibition at 3 μM (%)
# output: bare number, implied unit %

## Input Give OATP1B1 (Homo sapiens, UniProt Q9Y6L6) inhibition at 3 μM for OC1(c2ccc(Cl)cc2)c2ccccc2C2=NCCN21 (stereo not shown) [Compound A, reference compound]
## Output 3

###

# MEASURED TARGET: OCT2 (Homo sapiens, UniProt O15244)
# Sequence (O15244 whole entry): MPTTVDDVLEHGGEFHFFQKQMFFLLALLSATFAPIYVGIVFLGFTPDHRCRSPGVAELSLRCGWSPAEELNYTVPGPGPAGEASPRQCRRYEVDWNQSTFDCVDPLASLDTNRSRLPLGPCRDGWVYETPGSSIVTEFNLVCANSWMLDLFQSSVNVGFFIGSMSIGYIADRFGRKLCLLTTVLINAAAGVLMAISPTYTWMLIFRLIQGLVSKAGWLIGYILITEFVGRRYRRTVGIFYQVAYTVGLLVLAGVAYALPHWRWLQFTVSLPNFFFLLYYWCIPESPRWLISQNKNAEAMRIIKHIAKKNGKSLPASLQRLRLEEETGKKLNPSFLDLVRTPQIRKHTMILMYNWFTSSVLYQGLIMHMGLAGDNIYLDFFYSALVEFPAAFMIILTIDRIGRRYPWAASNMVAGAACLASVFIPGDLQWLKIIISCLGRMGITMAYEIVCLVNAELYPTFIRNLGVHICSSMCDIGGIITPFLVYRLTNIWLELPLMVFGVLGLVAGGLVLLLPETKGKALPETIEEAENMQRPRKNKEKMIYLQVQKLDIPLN
# ASSAY NAME: Uptake transporter inhibition assay, OCT2 (metformin)
# PROTOCOL CONDITIONS: follow-up assay; NSB-corrected concentrations for Compound I-19
READOUT KIND: IC50 (µM)
# output: bare number, implied unit µM

## Input So what does the record say about IC50 for Clc1ccc(C2(OCC3OCCO3)c3ccccc3C3=NCCN32)cc1 (stereo not shown) ?
## Output 8.95

###

# MEASURED TARGET: OAT3 (Homo sapiens, UniProt Q8TCC7)
# Sequence (Q8TCC7 whole entry): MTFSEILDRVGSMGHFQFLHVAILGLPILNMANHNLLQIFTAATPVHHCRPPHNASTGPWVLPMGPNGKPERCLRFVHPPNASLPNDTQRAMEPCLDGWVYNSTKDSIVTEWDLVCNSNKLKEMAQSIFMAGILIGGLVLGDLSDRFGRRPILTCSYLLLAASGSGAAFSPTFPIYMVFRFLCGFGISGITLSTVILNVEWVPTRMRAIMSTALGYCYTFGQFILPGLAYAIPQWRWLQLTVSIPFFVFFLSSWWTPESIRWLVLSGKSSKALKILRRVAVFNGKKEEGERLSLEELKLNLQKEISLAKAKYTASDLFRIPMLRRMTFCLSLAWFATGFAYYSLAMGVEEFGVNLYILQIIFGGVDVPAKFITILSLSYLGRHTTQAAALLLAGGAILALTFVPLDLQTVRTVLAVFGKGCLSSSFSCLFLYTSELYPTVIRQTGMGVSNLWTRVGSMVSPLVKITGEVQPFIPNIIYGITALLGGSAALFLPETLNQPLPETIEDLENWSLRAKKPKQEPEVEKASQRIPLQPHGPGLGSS
# ASSAY NAME: Uptake transporter inhibition assay, OAT3 (estrone-3-sulfate)
# PROTOCOL CONDITIONS: human, Relative Inhibition, 500.00 μM nominal; E3S; Table 130
READOUT KIND: inhibition at 500 μM (%)
# output: bare number, implied unit %

## Input So what does the record say about inhibition at 500 μM for CCCN(CCC)S(=O)(=O)c1ccc(C(=O)O)cc1 [Probenecid] ?
## Output 98

###

# MEASURED TARGET: CYP2C8 (Homo sapiens)
# Sequence (P10632 whole entry): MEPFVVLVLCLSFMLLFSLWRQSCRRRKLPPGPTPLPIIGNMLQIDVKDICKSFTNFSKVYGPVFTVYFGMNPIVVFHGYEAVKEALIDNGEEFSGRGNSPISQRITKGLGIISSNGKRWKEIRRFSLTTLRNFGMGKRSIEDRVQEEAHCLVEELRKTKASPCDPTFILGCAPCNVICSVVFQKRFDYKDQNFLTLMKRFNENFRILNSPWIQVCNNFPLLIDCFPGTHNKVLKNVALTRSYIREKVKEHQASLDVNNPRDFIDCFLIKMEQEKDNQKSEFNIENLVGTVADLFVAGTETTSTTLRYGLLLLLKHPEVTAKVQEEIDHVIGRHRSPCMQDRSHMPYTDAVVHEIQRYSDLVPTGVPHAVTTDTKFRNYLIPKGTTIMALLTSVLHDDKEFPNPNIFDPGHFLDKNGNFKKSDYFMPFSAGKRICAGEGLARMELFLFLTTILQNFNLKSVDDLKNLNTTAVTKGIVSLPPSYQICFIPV
# PROTOCOL CONDITIONS: microsomes
READOUT KIND: pIC50
Convention used: pIC50 is expressed as -log10 of the molar concentration.

## Input Give CYP2C8 (Homo sapiens) pIC50 for Clc1ccc(C2(OCC3OCCO3)c3ccccc3C3=NCCN32)cc1 (stereo not shown)
## Output 5.62

###

# MEASURED TARGET: OCT2 (Homo sapiens, UniProt O15244)
# ASSAY NAME: Uptake transporter inhibition assay, OCT2 (metformin)
# PROTOCOL CONDITIONS: human, Relative Inhibition, 30.00 μM nominal; metformin; IC50 determination, Table 124
READOUT KIND: inhibition at 30 μM (%)
# output: bare number, implied unit %

## Input So what does the record say about inhibition at 30 μM for OC1(c2ccc(Cl)cc2)c2ccccc2C2=NCCN21 (stereo not shown) [Compound A, reference compound] ?
## Output 91

###

# MEASURED TARGET: MATE1 (Homo sapiens)
# Sequence (Q96FL8 whole entry): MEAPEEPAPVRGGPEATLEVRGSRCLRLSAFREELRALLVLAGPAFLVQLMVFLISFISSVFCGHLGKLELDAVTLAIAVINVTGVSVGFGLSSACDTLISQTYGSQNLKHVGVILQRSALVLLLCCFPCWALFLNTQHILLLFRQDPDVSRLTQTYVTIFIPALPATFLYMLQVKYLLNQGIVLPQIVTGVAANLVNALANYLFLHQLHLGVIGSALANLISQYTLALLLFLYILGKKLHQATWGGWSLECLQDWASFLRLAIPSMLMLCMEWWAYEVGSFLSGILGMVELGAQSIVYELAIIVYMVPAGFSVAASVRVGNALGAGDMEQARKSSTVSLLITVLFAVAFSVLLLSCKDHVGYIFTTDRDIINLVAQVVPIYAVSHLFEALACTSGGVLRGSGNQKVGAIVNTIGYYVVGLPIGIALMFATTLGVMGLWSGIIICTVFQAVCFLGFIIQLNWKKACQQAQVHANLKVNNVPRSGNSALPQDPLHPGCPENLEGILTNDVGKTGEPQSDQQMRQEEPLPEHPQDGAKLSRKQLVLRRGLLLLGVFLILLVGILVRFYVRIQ
# ASSAY NAME: Uptake transporter inhibition assay, MATE1 (metformin)
# PROTOCOL CONDITIONS: human, Relative inhibition, 0.04 μM nominal, IC50 determination
READOUT KIND: inhibition at 0.04 μM (%)
# output: bare number, implied unit %

## Input So what does the record say about inhibition at 0.04 μM for OC1(c2ccc(Cl)cc2)c2ccccc2C2=NCCN21 (stereo not shown) [Compound A, reference compound] ?
## Output -6

###

# MEASURED TARGET: OCT1 (Homo sapiens, UniProt O15245)
# Sequence (O15245 1-554): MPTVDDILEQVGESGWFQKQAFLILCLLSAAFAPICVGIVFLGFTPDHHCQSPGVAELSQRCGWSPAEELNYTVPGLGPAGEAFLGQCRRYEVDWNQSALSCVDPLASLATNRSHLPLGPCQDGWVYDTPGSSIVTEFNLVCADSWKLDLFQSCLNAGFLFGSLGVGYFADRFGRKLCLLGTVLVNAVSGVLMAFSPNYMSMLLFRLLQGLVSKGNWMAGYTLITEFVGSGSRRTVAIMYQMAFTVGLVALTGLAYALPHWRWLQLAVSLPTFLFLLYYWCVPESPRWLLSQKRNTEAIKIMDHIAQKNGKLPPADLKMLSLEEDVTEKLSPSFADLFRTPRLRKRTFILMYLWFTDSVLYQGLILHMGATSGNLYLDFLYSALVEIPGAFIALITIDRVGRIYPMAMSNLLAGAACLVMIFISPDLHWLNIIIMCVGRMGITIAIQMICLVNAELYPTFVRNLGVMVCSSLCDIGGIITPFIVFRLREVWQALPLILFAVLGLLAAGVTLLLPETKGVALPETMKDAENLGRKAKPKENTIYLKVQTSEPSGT
# ASSAY NAME: Uptake transporter inhibition assay, OCT1 (sumatriptan)
# PROTOCOL CONDITIONS: follow-up assay; NSB-corrected concentrations for Compound I-19
READOUT KIND: IC50 (µM)
# output: bare number, implied unit µM

## Input So what does the record say about IC50 for Clc1ccc(C2(OCC3OCCO3)c3ccccc3C3=NCCN32)cc1 (stereo not shown) ?
## Output 3.32

###

# MEASURED TARGET: MATE1 (Homo sapiens)
# ASSAY NAME: Uptake transporter inhibition assay, MATE1 (metformin)
# PROTOCOL CONDITIONS: human, Relative inhibition, 30.00 μM nominal
READOUT KIND: inhibition at 30 μM

## Input Give MATE1 (Homo sapiens) inhibition at 30 μM for OC1(c2ccc(Cl)cc2)c2ccccc2C2=NCCN21 (stereo not shown) [Compound A, reference compound]
## Output 80%
